Quick record: MIC, H influenzae 49247.
Answers are plain numbers, in µg/mL.

Worked cases, answers included:
- CCC(=O)/N=C1\[C@H](C)C[C@@]2(C)OC/C(=N/OCc3ccc(-c4nc(N)cs4)cn3)CO[C@H]([C@H]1C)[C@](C)(O)[C@@H](CC)OC(=O)[C@@](C)(F)C(=O)[C@H](C)[C@H]2O[C@@H]1O[C@H](C)C[C@H](N(C)C)[C@H]1O: 4
- CCC(=O)/N=C1\[C@H](C)C[C@@]2(C)OC/C(=N/OCc3csc(-c4cccc(N)n4)n3)CO[C@H]([C@H]1C)[C@](C)(O)[C@@H](CC)OC(=O)[C@@](C)(F)C(=O)[C@H](C)[C@H]2O[C@@H]1O[C@H](C)C[C@H](N(C)C)[C@H]1O: 1
- CC[C@H]1OC(=O)[C@H](C)C(=O)[C@H](C)[C@@H](O[C@@H]2O[C@H](C)C[C@H](N(C)C)[C@H]2O)[C@@]2(C)C[C@@H](C)C(=O)[C@H](C)[C@@H](OC/C(=N\OCc3ccc(-c4nc(N)ns4)cn3)CO2)[C@]1(C)O: 1

Record request: MIC value, item CC[C@H]1OC(=O)[C@H](C)C(=O)[C@H](C)[C@@H](O[C@@H]2O[C@H](C)C[C@H](N(C)C)[C@H]2O)[C@@]2(C)C[C@@H](C)/C(=N\C(C)=O)[C@H](C)[C@@H](OC/C(=N\OCc3ccc(-c4ccno4)nc3)CO2)[C@]1(C)O
4
